Value source: patent US20200048267A1

- target.or.test.system: OGA (Homo sapiens)
- Construct: HEK293 cells inducible for P301L mutant human Tau (isoform 2N4R) were established at Janssen; endogenous in cells; host or cells: HEK293 cells inducible for P301L mutant human Tau (2N4R)
- Sequence (O60502 1-916): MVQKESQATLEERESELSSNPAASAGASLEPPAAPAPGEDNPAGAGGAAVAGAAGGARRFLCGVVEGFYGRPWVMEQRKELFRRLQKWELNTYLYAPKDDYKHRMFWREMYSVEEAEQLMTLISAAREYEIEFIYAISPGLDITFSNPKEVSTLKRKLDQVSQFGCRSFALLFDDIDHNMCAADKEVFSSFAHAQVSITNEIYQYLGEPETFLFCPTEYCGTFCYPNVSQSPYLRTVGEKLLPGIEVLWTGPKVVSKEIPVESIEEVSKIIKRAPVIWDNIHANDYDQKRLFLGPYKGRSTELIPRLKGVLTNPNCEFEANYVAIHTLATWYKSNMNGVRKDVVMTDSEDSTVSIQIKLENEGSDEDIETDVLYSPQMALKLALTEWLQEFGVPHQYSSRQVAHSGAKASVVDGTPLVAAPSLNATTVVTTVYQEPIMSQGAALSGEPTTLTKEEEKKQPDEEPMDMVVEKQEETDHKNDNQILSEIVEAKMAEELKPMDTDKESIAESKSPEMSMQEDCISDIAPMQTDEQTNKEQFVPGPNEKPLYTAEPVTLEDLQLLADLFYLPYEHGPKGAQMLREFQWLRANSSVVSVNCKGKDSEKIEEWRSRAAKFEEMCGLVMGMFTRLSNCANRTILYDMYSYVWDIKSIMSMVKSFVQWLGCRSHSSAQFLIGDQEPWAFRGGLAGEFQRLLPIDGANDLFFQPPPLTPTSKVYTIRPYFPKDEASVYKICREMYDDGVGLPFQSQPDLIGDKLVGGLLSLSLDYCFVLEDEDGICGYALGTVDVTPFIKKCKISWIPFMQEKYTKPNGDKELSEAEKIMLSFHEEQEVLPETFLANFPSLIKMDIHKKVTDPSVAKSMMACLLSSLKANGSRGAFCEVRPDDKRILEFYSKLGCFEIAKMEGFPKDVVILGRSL
- test.method.notes: OGA cellular assay (ICC detection of O-GlcNAcylated proteins in HEK293 cells inducible for P301L mutant human Tau)
- Type: cell-based
- protocol.conditions: 6 hours incubation
Reported values of Emax for individual entries
Quick reminder: number only, in %, skip the unit.

Consider the following illustrative entries.
Cc1cc(N2CCC3(CCN(Cc4ccc5scnc5c4)C3)C2)nc(C)n1 (centres unmarked) [Product 21]    23.6
CC(=O)Nc1ncc(CN2CCC3(CCN(c4ccnc(C(F)(F)F)c4)C3)C2)s1 (centres unmarked) [Product 65]    56.8
CC(=O)Nc1ncc(CN2CCC3(CCN(c4cc(C)c(C)cn4)C3)C2)s1 (centres unmarked) [Product 61]    94.6
CC(=O)Nc1ncc(CN2CCC3(CCN(c4cnc(C)c(C)c4)C3)C2)s1 (centres unmarked) [Product 51]    93
Cc1cc(N2CCC3(CCN(C(C)c4ccc5nccnc5c4)C3)C2)cc(C)n1 (single isomer, unassigned) [Product 7]    62.9

Please look up its Emax: COc1cc(N2CCC3(CCN(Cc4cnc(NC(C)=O)s4)C3)C2)ccn1 (centres unmarked) [Product 63]
75.1

Consider the molecule shown here: COc1cncc(N2CCC3(CCN(Cc4cnc(NC(C)=O)s4)C3)C2)c1 (centres unmarked) [Product 67] What is its recorded Emax?
45.6

====

- target.or.test.system: OGA (Homo sapiens)
- Construct: HEK293 cells inducible for P301L mutant human Tau (isoform 2N4R) were established at Janssen; endogenous in cells; host or cells: HEK293 cells inducible for P301L mutant human Tau (2N4R)
- test.method.notes: OGA cellular assay (ICC detection of O-GlcNAcylated proteins in HEK293 cells inducible for P301L mutant human Tau)
- Type: cell-based
- protocol.conditions: 6 hours incubation
reported.metric: Emax

CC(=O)Nc1ncc(CN2CCC3(CCN(c4cc(C)nc(C(F)(F)F)c4)C3)C2)s1 (stereo not shown)    73.4%
Cc1cc(N2CCC3(CCN(C(C)c4ccc5sc(C)nc5c4)C3)C2)cc(C)n1 (stereo not shown)    74.1%
CC(=O)Nc1ncc(CN2CCC3(CCN(c4cc(C)ncc4C(F)(F)F)C3)C2)s1 (stereo not shown)    85.3%

For the compound shown here, Cc1cc(N2CCC3(CCN(C(C)c4ccc5scnc5c4)C3)C2)cc(C)n1 (stereo not shown) , give the reported Emax.
87.9%
